System: KM20L2 colon
Experiment: NCI tumour cell line growth inhibition, 48 h
Please provide measured TGI for the entries that follow.

**Query** Look up TGI of COc1cc(OC)c2c(O)cc(CC(C)O)cc2c1 (centres undefined) and report it.
**Result** > 100 µM

**Query** For the molecule CCOc1ccccc1NC(=O)C(=O)CC(=O)c1c(C)n([O-])c2ccccc2[n+]1=O , report TGI.
**Result** > 100 µM

**Query** Please give the documented TGI of CCCCCc1cc(OC(=O)c2c(O)cc(OC)cc2CCCCC)cc(O)c1C(=O)O
**Result** 33.3 µM

**Query** Query TGI for Cc1cc(C)nc(NS(=O)(=O)c2ccc(Nc3c4ccccc4nc4c(C(=O)Nc5ccc(S(=O)(=O)N=C(N)N)cc5)ccc(Cl)c34)cc2)n1
**Result** > 100 µM

**Query** Fill in reported TGI for this entry: COC(=O)C12Oc3ccc(-c4ccc5c(c4O)C(=O)C4=CCC(C)C(O)C4(C(=O)OC)O5)c(O)c3C(=O)C1=CCC(C)C2O (centres undefined)
**Result** 2.93 µM

**Query** Name the recorded TGI of the item CCc1cccc(C(C)C)c1NC(=O)C(=O)C(Cc1nc2ccccc2[nH]c1=O)C(=O)OC (centres undefined) in your answer.
**Result** > 100 µM

**Query** Complete the entry with TGI for O=C(c1ccccc1)C(c1ccccc1)C1(O)C(=O)Nc2c(Cl)cc(Cl)cc21 (centres undefined)
**Result** > 100 µM

**Query** Answer with the recorded TGI for the molecule listed here: O=C(O)CSc1n[nH]c(-c2ccc(O)cc2)n1
**Result** > 100 µM

**Query** Tell me its TGI given CCOC(=O)C(=O)Nc1nc2c(s1)C(=O)c1ccccc1C2=O as the entry.
**Result** 40.7 µM
